// provenance: ChEMBL document CHEMBL3988442

Biological target: Chromo domain-containing protein 1 (Saccharomyces cerevisiae (strain ATCC 204508 / S288c) (Baker's yeast)) (UniProt P32657)
Sequence (P32657 whole entry, the tested form may be a part): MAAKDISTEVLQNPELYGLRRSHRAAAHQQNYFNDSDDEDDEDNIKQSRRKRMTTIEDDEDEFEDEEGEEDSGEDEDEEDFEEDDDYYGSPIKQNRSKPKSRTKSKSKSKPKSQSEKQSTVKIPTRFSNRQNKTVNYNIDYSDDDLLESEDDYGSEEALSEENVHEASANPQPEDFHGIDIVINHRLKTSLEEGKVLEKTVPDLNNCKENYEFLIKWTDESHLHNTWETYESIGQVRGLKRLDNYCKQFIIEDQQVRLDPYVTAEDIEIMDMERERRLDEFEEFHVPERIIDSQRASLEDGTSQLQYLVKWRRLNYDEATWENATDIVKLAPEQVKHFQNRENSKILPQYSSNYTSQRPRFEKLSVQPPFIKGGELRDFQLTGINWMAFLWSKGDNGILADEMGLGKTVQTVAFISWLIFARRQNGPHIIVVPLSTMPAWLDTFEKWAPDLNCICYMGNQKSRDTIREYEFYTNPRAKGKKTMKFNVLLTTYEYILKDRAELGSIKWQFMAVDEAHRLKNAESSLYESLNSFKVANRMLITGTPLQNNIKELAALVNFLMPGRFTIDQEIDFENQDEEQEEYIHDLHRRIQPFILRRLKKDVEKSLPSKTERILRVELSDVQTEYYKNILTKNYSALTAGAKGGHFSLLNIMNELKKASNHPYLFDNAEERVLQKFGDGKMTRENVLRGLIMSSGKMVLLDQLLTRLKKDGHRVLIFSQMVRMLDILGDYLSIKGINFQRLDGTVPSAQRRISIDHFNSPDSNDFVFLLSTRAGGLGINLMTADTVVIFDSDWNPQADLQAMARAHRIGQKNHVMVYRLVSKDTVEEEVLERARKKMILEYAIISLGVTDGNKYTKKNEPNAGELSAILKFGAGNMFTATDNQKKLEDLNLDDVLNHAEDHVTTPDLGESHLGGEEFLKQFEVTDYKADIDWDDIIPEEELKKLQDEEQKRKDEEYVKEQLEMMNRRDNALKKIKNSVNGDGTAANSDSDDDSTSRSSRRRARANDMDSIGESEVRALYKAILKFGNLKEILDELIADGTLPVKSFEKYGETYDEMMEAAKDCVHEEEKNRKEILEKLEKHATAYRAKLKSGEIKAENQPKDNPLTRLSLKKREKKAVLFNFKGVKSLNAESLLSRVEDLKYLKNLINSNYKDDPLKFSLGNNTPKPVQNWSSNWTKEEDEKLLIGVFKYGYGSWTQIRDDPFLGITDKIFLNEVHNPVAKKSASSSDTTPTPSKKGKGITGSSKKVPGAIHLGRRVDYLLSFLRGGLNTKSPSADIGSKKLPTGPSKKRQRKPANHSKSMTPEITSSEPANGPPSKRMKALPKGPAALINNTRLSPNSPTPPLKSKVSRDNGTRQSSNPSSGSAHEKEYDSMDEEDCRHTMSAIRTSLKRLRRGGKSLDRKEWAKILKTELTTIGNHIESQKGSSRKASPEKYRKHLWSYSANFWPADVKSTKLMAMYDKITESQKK
Experiment: ScCHD-1 Enzyme Inhibition Assay; further: in the data most compounds retested in dose-response had high values
Type: functional
Design: scale not given: direction of the effect not stated beside the values
Details: 30 µM
parameter-measured: Percent Effect (%)

> print(dat)
                                   compound  measured
1    O=S(=O)(NC1=NCN(CCc2cccs2)CN1)c1ccccc1     -7.27
2  Cc1nn(C)c2cn(C(C)C(=O)NCc3cccnc3)nc12 (stereo unspecified)     -9.99
3  O=C(c1cccc(OC2CCCC2)c1)N1CCCC(n2cncn2)C1 (stereo unspecified)     -11.7
4  Cc1nnsc1C(=O)N1CCC2(CC1)c1nc[nH]c1CCN2CC(C)C     -5.05
5  CC(C)c1n[nH]c(C2CN(C(=O)c3csnn3)CCO2)n1 (stereo unspecified)     -3.21
6  CCOC(=O)N1CCN(C(=O)CCn2ccc3c(OC)cccc32)CC1     -1.25

---

Reported Percent Effect by item:
Biological target: Tyrosyl-tRNA synthetase, putative (Trypanosoma cruzi (strain CL Brener)) (UniProt Q4DSP6)
Sequence (Q4DSP6 as listed by the source): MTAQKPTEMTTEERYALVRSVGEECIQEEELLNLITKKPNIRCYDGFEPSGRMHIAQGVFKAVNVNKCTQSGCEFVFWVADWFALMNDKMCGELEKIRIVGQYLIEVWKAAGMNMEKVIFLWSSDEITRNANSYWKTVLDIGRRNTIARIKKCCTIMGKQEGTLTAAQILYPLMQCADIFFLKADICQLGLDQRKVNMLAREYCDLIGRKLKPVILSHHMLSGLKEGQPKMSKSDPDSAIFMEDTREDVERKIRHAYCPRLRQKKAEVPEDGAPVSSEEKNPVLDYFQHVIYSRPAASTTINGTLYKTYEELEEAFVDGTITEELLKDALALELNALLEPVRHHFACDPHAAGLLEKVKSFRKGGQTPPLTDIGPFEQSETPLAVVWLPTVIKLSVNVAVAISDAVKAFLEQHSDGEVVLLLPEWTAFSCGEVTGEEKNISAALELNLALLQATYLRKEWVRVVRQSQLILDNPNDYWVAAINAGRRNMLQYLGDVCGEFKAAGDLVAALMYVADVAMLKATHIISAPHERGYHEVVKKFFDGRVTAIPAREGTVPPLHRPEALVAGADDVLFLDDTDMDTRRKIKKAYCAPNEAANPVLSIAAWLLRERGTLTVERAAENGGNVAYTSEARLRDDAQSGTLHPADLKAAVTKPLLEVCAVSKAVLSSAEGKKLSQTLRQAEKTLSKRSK
Experiment: Trypanosoma cruzi tyrosyl tRNA synthetase (TcYRS) SOP
Format: functional
Parameters: scale not given: direction of the effect not stated beside the values
Conditions: 30 µM
parameter-measured: Percent Effect

> print(dat)
                                    compound  parameter.measured  measured
 1  Cc1cnn(CC2CCCN2CC(=O)N(C)CCC#N)c1 (configuration not stated)      Percent Effect    -2.44%
 2           CCN(C)c1ncnc2c1CCN(Cc1ccoc1)CC2      Percent Effect     15.4%
 3             CCSc1cc(C(=O)NCc2ccccc2O)ccn1      Percent Effect        5%
 4         COCCC(=O)N1CC2(CCN(Cc3ccoc3)C2)C1      Percent Effect     1.28%
 5    CN(C)C(=O)COCc1cncc2c1CCN(Cc1nccn1C)C2      Percent Effect     13.6%
 6  CCc1ccc(C(=O)N2CCCC(n3cncn3)C2)o1 (configuration not stated)      Percent Effect    -2.56%
 7             O=C(CCn1ccccc1=O)Nc1ccc(I)cc1      Percent Effect     6.17%
 8  COCCN1C(=O)C[C@@H]2[C@H]1CCN2C(=O)COc1ccccc1      Percent Effect     10.3%
 9        O=C(CN(C1=NCCCC1)c1ccccc1)c1ccccc1      Percent Effect    -10.4%
10  Cc1nccn1CC1CCCN1S(=O)(=O)Cc1ccccc1F (configuration not stated)      Percent Effect     21.5%
11        CSCc1nc(C(C)(C)NC(=O)OC(C)(C)C)no1      Percent Effect     1.24%
12          COCCCNC(=O)CN(C)C(=O)c1cc(C)sc1C      Percent Effect     15.8%

---

Molecular target: Sialic acid-binding Ig-like lectin 9 (Homo sapiens) (UniProt Q9Y336)
Sequence (Q9Y336 whole entry): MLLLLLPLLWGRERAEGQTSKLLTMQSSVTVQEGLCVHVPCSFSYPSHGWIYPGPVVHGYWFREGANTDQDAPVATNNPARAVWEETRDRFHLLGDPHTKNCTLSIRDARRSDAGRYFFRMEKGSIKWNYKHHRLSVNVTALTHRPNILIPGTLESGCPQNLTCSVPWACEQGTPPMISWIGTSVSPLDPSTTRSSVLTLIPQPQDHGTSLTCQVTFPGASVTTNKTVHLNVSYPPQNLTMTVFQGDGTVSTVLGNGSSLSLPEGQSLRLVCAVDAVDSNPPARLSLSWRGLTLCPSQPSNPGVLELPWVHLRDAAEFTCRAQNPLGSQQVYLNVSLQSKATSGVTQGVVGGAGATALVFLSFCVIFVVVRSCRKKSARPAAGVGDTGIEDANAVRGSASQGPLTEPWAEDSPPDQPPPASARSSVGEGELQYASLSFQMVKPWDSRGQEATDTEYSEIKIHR
Experiment: Hs-Siglec9 ALPHAscreen SOP 20170721
Design: scale not given: direction of the effect not stated beside the values
Conditions: 10 µM
parameter-measured: Percent Effect (%)

> print(dat)
                                   compound                            assayed.system  measured
1   CC(C)c1noc(CN2CCN(C(=O)c3ccccc3F)CC2)n1  Sialic acid-binding Ig-like lectin 9 (Homo sapiens) (UniProt Q9Y336)       3.5
2  Cc1cccc(C(=O)NC(CN2CCCC2=O)c2ccccc2)n1 (stereo unspecified)  Sialic acid-binding Ig-like lectin 9 (Homo sapiens) (UniProt Q9Y336)      7.02
3    O=C(CCc1ccccc1)N1CCn2cc(Cn3cncn3)nc2C1  Sialic acid-binding Ig-like lectin 9 (Homo sapiens) (UniProt Q9Y336)      7.21
4  CSc1ccc(Cl)c(C(=O)N2CCCC(CNS(C)(=O)=O)C2)c1 (stereo unspecified)  Sialic acid-binding Ig-like lectin 9 (Homo sapiens) (UniProt Q9Y336)     -6.07
5  Cc1cc(CN2CCCC2c2noc(C)n2)no1 (stereo unspecified)  Sialic acid-binding Ig-like lectin 9 (Homo sapiens) (UniProt Q9Y336)      5.36
6  O=C(c1cc(C2CC2)on1)N1CCCC(n2cncn2)C1 (stereo unspecified)  Sialic acid-binding Ig-like lectin 9 (Homo sapiens) (UniProt Q9Y336)       -20
